Entry source: patent EP3383875B1

Measured inhibition at 0.5 µM accompanies every entry in the list below.
Subject of test: CDK-9/Cyclin T1 (Homo sapiens)
Sequence (P50750 whole entry): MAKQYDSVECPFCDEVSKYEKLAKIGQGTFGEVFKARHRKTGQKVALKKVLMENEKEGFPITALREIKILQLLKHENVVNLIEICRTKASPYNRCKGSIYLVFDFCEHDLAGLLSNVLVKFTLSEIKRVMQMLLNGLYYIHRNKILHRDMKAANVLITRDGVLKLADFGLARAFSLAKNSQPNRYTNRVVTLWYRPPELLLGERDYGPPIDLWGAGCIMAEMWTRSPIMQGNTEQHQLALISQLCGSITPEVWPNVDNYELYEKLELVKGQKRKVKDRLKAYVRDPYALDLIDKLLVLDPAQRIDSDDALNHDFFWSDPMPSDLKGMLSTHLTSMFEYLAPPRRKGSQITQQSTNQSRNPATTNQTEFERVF
Sequence (O60563 whole entry partner): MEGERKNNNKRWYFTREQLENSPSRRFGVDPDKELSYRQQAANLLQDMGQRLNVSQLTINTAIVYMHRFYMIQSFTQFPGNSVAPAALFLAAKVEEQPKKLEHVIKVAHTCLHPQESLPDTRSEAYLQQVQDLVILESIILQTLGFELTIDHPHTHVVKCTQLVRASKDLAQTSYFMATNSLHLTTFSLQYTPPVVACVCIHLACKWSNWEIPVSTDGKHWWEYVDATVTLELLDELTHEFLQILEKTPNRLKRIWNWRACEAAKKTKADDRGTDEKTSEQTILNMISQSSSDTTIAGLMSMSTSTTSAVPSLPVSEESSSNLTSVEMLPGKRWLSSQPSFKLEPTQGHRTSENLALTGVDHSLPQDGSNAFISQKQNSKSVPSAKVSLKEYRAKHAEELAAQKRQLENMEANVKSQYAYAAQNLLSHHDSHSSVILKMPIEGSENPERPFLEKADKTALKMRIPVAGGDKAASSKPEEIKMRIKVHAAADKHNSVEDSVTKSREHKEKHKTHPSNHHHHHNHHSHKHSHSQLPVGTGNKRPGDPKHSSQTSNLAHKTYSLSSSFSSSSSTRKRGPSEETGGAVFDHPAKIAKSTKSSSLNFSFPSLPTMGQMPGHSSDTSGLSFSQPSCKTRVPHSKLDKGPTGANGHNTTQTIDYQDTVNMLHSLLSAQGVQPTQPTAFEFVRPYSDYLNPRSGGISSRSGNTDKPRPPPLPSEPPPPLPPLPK
Test summary: CDK inhibition assay, CDK-9/Cyclin T1 against substrate peptide, 33P-ATP
Type: biochemical
Condition notes: at 500 nM; Table-7; read-out: In vitro CDK9 % of inhibition

Below: 3 molecules and their reported inhibition at 0.5 µM.
c1ccc2c(-c3cnc4[nH]cc(-c5ccnc(NC6CCCCCC6)n5)c4c3)cccc2c1 :: > 70%
O=Cc1ccc(-c2cnc3[nH]cc(-c4ccnc(NC5CCCCCC5)n4)c3c2)cc1 :: > 70%
CCc1ccccc1-c1cnc2[nH]cc(-c3ccnc(NCCc4ccccc4)n3)c2c1 :: > 50%

Now look at this one.
Sample FC(F)(F)c1cccc(-c2cnc3[nH]cc(-c4ccnc(NCCc5ccccc5)n4)c3c2)c1 ; inhibition at 0.5 µM observed: > 70%
